Assayed System: UniProt:P08183
Procedure Text: Inhibition of human ABCB1 expressed in mouse L5178 cells assessed as 50% inhibition of cell proliferation at compound-doxorubicin ratio of 20.4:1 after 48 hrs by MTT assay
Type: cell-based
Condition Description: l5178, 48 h
Recorded Endpoint: fractional inhibitory concentration index (FICI)
Give the value as a plain number.

CC(C)(O)CC[C@H]1OC(C)(C)O[C@]1(C)[C@H]1CC[C@@]2(O)C3=CC(=O)[C@@H]4C[C@@H](O)[C@H]5OC(C)(C)O[C@H]5[C@]4(C)[C@H]3CC[C@]12C ... 0.66
CC(C)(O)CC[C@H]1OC(C)(C)O[C@]1(C)[C@H]1CC[C@@]2(O)C3=CC(=O)[C@@H]4C[C@H]5OC(C)(C)O[C@H]5C[C@]4(C)[C@H]3CC[C@]12C ... 0.28

Consider the additional compound presented here.
[in] What does the record list as fractional inhibitory concentration index (FICI) for `CC(C)(O)CC[C@H]1OC(C)(C)O[C@]1(C)[C@H]1CC[C@@]2(O)C3=CC(=O)[C@@H]4C[C@H]5OC(C)(C)O[C@H]5[C@@H](O)[C@]4(C)[C@H]3CC[C@]12C` ?
[out] 1.23

###

Here, each record is paired with measured Ratio data.
Assayed System: ATP-dependent translocase ABCB1 (Homo sapiens, UniProt P08183)
Sequence (P08183 whole entry): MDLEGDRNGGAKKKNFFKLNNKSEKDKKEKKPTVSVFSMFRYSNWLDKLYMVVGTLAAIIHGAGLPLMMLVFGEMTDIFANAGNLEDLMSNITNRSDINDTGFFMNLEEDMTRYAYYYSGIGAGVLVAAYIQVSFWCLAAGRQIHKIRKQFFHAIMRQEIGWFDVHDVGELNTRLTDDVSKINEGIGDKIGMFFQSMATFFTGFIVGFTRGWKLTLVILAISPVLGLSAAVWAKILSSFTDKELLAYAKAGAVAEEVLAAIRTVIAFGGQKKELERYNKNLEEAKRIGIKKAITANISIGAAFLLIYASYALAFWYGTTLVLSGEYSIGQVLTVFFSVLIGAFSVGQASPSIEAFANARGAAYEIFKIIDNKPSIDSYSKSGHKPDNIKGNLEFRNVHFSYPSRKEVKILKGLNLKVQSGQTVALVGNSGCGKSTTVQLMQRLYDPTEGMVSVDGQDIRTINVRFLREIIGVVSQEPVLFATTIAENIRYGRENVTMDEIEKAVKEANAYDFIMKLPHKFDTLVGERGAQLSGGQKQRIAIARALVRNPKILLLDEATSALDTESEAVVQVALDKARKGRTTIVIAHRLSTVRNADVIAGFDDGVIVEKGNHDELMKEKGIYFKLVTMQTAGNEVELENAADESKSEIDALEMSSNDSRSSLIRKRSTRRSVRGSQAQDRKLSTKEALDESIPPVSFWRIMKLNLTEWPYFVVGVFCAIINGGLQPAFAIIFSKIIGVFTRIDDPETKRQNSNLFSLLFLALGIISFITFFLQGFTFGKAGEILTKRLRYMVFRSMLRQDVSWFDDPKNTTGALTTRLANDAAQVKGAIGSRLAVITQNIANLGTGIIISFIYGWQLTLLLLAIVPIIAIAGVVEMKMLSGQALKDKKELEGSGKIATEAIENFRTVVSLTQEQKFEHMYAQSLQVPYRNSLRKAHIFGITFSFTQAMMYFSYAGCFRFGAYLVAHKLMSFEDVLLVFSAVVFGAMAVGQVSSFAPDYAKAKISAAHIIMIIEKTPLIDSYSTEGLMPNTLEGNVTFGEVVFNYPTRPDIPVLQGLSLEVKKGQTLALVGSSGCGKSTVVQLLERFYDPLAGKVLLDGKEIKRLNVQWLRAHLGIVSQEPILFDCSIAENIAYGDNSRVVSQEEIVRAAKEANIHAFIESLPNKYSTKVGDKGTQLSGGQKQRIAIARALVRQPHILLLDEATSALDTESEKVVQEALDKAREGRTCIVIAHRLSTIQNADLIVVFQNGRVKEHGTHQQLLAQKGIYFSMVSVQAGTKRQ
Procedure Text: Inhibition of human ABCB1 pump expressed in mouse L5178 cells assessed as fluorescence activity ratio at 20 uM for 10 mins by flow cytometry relative to control
Assay type: cell-based
Condition Description: l5178, 10 min
// print number alone

Examples from the recorded data:
C[C@H]([C@H](O)CCC(C)(C)O)[C@H]1CC[C@@]2(O)C3=CC(=O)[C@@H]4C[C@@H](O)[C@@H](O)C[C@]4(C)[C@H]3CC[C@]12C [ECDYSONE] ... 1.38
CC(C)(O)CC[C@H]1OC(C)(C)O[C@]1(C)[C@H]1CC[C@@]2(O)C3=CC(=O)[C@@H]4C[C@@H](O)CC[C@]4(C)[C@H]3CC[C@]12C ... 7.01
CC(C)[C@@H](O)C[C@@H](O)[C@](C)(O)[C@H]1CC[C@@]2(O)C3=CC(=O)[C@@H]4C[C@@H](O)[C@@H](O)C[C@]4(C)[C@H]3CC[C@]12C [PTEROSTERONE] ... 0.56
CC(=O)O[C@H]1CC[C@@]2(C)[C@@H](C1)C(=O)C=C1[C@@H]2CC[C@]2(C)[C@@H]([C@H](C)[C@@H](CCC(C)(C)O)OC(C)=O)CC[C@@]12O ... 0.97
CCC1C[C@H]([C@](C)(O)[C@H]2CC[C@@]3(O)C4=CC(=O)[C@@H]5C[C@@H](O)[C@@H](O)C[C@]5(C)[C@H]4CC[C@]23C)OC(=O)C1C (stereo not given in full) [CAPITASTERONE] ... 0.63

[in] # query: Ratio of entry `CC(C)CC[C@H]1OC(C)(C)O[C@]1(C)[C@H]1CC[C@@]2(O)C3=CC(=O)[C@@H]4C[C@@H](O)[C@@H](O)C[C@]4(C)[C@H]3[C@H](O)C[C@]12C`
[out] 1.93

[in] Ratio lookup needed for C[C@]12C[C@H](O)[C@H](O)C[C@H]1C(=O)C=C1[C@@H]2CC[C@]2(C)C(=O)CC[C@@]12O [RUBROSTERONE] , thanks.
[out] 0.89

[in] Using the record for `CC(C)(CC[C@@H](O)[C@](C)(O)[C@H]1CC[C@@]2(O)C3=CC(=O)[C@@H]4C[C@@H](O)CC[C@]4(C)[C@H]3CC[C@]12C)O[C@@H]1O[C@H](CO)[C@@H](O)[C@H](O)[C@H]1O` , report its Ratio.
[out] 0.68

[in] // lookup Ratio for `CC(C)(O)CC[C@H]1OC(C)(C)O[C@]1(C)[C@H]1CC[C@@]2(O)C3=CC(=O)[C@@H]4C[C@H]5OC(C)(C)O[C@H]5[C@@H](O)[C@]4(C)[C@H]3CC[C@]12C`
[out] 2.53

[in] What value of Ratio has been recorded for this entry: C=C(C)C(C[C@@H](O)[C@](C)(O)[C@H]1CC[C@@]2(O)C3=CC(=O)[C@]4(O)C[C@@H](O)[C@@H](O)C[C@]4(C)[C@H]3CC[C@]12C)C(C)O (stereo not given in full) [AJUGASTERONE B]
[out] 0.7
